tested on: Escherichia coli TOP10; assay: shrunken log2 fold change of peptide-encoding DNA abundance (4.5 h post-induction vs induction); higher = less antimicrobial activity (less host growth inhibition); conditions: time post-induction: 4.5 h; library: site-saturation at positions 5, 18, 19, 20
Measured shrunken log2 fold change of individual entries
Provide a numeric answer; units are not to be included.

Some entries whose results are on file:
{"chainSequence": "RRIRYRPPRLPRPRPRPPNHPRP", "observedValue": -0.626}
{"chainSequence": "RRIRLRPPRLPRPRPRPSKRPRP", "observedValue": -0.646}
{"chainSequence": "RRIRHRPPRLPRPRPRPWTRPRP", "observedValue": -0.0761}
{"chainSequence": "RRIRLRPPRLPRPRPRPVAEPRP", "observedValue": 0.396}
{"chainSequence": "RRIRCRPPRLPRPRPRPFNTPRP", "observedValue": -0.2}

### Prompt Bench note: what shrunken log2 fold change did `RRIRFRPPRLPRPRPRPNKDPRP` show?
### Response 0.539

### Prompt `RRIRARPPRLPRPRPRPLDFPRP` , same question.
### Response 0.173

### Prompt Further, for `RRIRARPPRLPRPRPRPHQQPRP` ?
### Response 0.33

### Prompt Same for `RRIRVRPPRLPRPRPRPDGVPRP`
### Response -0.0176

### Prompt Now consider `RRIRQRPPRLPRPRPRPRRRPRP` .
### Response 0.255

### Prompt Entry to check: `RRIRMRPPRLPRPRPRPHFAPRP`
### Response 0.194

### Prompt `RRIRSRPPRLPRPRPRPWGEPRP` , same question.
### Response 0.00882

### Prompt Next entry: `RRIRERPPRLPRPRPRPVEWPRP`
### Response -0.00804

### Prompt Moving on to the next sequence: `RRIRMRPPRLPRPRPRPWEVPRP`
### Response -0.00931

### Prompt Try `RRIRCRPPRLPRPRPRPMECPRP` next.
### Response -0.00088

### Prompt Now this one: `RRIRSRPPRLPRPRPRPCRKPRP`
### Response -0.012

### Prompt Entry `RRIRIRPPRLPRPRPRPSVMPRP` please
### Response -0.286

### Prompt Here is the next sequence: `RRIRARPPRLPRPRPRPFLVPRP`
### Response -0.205

### Prompt Also need `RRIRPRPPRLPRPRPRPPQFPRP` , thanks.
### Response 0.297

---

tested on: Escherichia coli TOP10; assay: shrunken log2 fold change of peptide-encoding DNA abundance (4.5 h post-induction vs induction); higher = less antimicrobial activity (less host growth inhibition); settings: time post-induction: 4.5 h; library: site-saturation at positions 5, 18, 19, 20
shrunken log2 fold change below -0.03 gives not met; shrunken log2 fold change at or above it gives met.

Illustrative cases are given below, each with its answer.
{"chainSequence": "RRIRKRPPRLPRPRPRPDYMPRP", "measuredTarget": "Escherichia coli TOP10", "assignedClass": "met"}
{"chainSequence": "RRIRCRPPRLPRPRPRPSFIPRP", "measuredTarget": "Escherichia coli TOP10", "assignedClass": "not met"}
{"chainSequence": "RRIRSRPPRLPRPRPRPLVNPRP", "measuredTarget": "Escherichia coli TOP10", "assignedClass": "not met"}
{"chainSequence": "RRIRFRPPRLPRPRPRPGPYPRP", "measuredTarget": "Escherichia coli TOP10", "assignedClass": "met"}
{"chainSequence": "RRIRERPPRLPRPRPRPHCHPRP", "measuredTarget": "Escherichia coli TOP10", "assignedClass": "not met"}

### Prompt Is it the case that `RRIRGRPPRLPRPRPRPFQPPRP` has shrunken log2 fold change reaching or exceeding -0.03?
### Response met

### Prompt Repeat with `RRIRMRPPRLPRPRPRPKPYPRP`
### Response met

---

tested on: Escherichia coli TOP10; assay: shrunken log2 fold change of peptide-encoding DNA abundance (4.5 h post-induction vs induction); higher = less antimicrobial activity (less host growth inhibition); settings: time post-induction: 4.5 h; library: site-saturation at positions 5, 18, 19, 20
The reader will find reported shrunken log2 fold change values listed item by item below.
Respond using a number only.

Examples with answers:
{"chainSequence": "RRIRERPPRLPRPRPRPIQNPRP", "shrunken log2 fold change": 0.0753}
{"chainSequence": "RRIRSRPPRLPRPRPRPKTVPRP", "shrunken log2 fold change": 0.0369}
{"chainSequence": "RRIRSRPPRLPRPRPRPYADPRP", "shrunken log2 fold change": -0.179}

We now examine a further sequence.
### Prompt Would you mind telling me what shrunken log2 fold change value was observed for `RRIRRRPPRLPRPRPRPWADPRP` ?
### Response -0.143

---

system: Escherichia coli TOP10; assay: shrunken log2 fold change of peptide-encoding DNA abundance (4.5 h post-induction vs induction); higher = less antimicrobial activity (less host growth inhibition); conditions: time post-induction: 4.5 h; library: site-saturation at positions 5, 18, 19, 20
experimentalEndpoint: shrunken log2 fold change
Please respond with just the number, no unit label.

{"chainSequence": "RRIRRRPPRLPRPRPRPGRQPRP", "shrunken log2 fold change": 0.541}
{"chainSequence": "RRIRKRPPRLPRPRPRPEKWPRP", "shrunken log2 fold change": 0.422}
{"chainSequence": "RRIRCRPPRLPRPRPRPIPTPRP", "shrunken log2 fold change": -0.0788}
{"chainSequence": "RRIRTRPPRLPRPRPRPMHGPRP", "shrunken log2 fold change": -0.0017}
{"chainSequence": "RRIRCRPPRLPRPRPRPSIEPRP", "shrunken log2 fold change": -0.123}
{"chainSequence": "RRIRIRPPRLPRPRPRPYFTPRP", "shrunken log2 fold change": -0.702}

### Prompt Form field: shrunken log2 fold change recorded for `RRIRTRPPRLPRPRPRPMVKPRP` with Escherichia coli TOP10 (enter value)
### Response -0.0282

### Prompt Request: `RRIRMRPPRLPRPRPRPEDSPRP`
### Response 0.0648

### Prompt `RRIRNRPPRLPRPRPRPVGLPRP` , same question.
### Response 0.0874

### Prompt And what about the sequence `RRIRRRPPRLPRPRPRPWSQPRP` ?
### Response -0.132

### Prompt Param item: `RRIRHRPPRLPRPRPRPHFRPRP`
### Response 0.00253

---

Here, each record is paired with measured shrunken log2 fold change data.
test system: Escherichia coli TOP10; assay: shrunken log2 fold change of peptide-encoding DNA abundance (4.5 h post-induction vs induction); higher = less antimicrobial activity (less host growth inhibition); settings: time post-induction: 4.5 h; library: site-saturation at positions 5, 18, 19, 20
Quick one: just the number, no unit, thanks!

Would you please look over these solved cases?
{"chainSequence": "RRIRGRPPRLPRPRPRPDWKPRP", "shrunken log2 fold change": 0.000125}
{"chainSequence": "RRIRPRPPRLPRPRPRPRWVPRP", "shrunken log2 fold change": 0.164}
{"chainSequence": "RRIRWRPPRLPRPRPRPVNEPRP", "shrunken log2 fold change": -0.0791}
{"chainSequence": "RRIRHRPPRLPRPRPRPRCYPRP", "shrunken log2 fold change": -0.154}
{"chainSequence": "RRIRQRPPRLPRPRPRPEYGPRP", "shrunken log2 fold change": -0.0248}

### Prompt Which shrunken log2 fold change value belongs to `RRIRNRPPRLPRPRPRPKNLPRP` ?
### Response 0.13

### Prompt Another sequence: `RRIRLRPPRLPRPRPRPLQHPRP`
### Response 0.212

### Prompt Next sequence: `RRIRMRPPRLPRPRPRPQIPPRP`
### Response -0.127

### Prompt What do we get for `RRIRWRPPRLPRPRPRPEQQPRP` ?
### Response 1.39

### Prompt Next sequence up: `RRIRERPPRLPRPRPRPNEGPRP`
### Response -0.0857

### Prompt Repeat for the following sequence: `RRIRWRPPRLPRPRPRPQGKPRP`
### Response 0.127

### Prompt Another sequence: `RRIRMRPPRLPRPRPRPRVLPRP`
### Response 1.12

---

test system: Escherichia coli TOP10; assay: shrunken log2 fold change of peptide-encoding DNA abundance (4.5 h post-induction vs induction); higher = less antimicrobial activity (less host growth inhibition); details: time post-induction: 4.5 h; library: site-saturation at positions 5, 18, 19, 20;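 also: peptides expressed intracellularly from a pBAD plasmid library in pooled LB shake-flask culture, induced with 0.3% L-arabinose, DNA abundance read by NGS, three biological replicates, DESeq2 with apeglm shrinkage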
Listed here: items and their measured shrunken log2 fold change.
No unit in the answer, please; the number alone is enough.

See these solved cases before continuing.
{"chainSequence": "RRIRGRPPRLPRPRPRPRMGPRP", "shrunken log2 fold change": 0.868}
{"chainSequence": "RRIRERPPRLPRPRPRPDVFPRP", "shrunken log2 fold change": -0.0359}
{"chainSequence": "RRIRHRPPRLPRPRPRPPSHPRP", "shrunken log2 fold change": -0.139}
{"chainSequence": "RRIRHRPPRLPRPRPRPNCMPRP", "shrunken log2 fold change": -0.0153}

### Prompt Hi! What's the reported shrunken log2 fold change for `RRIRARPPRLPRPRPRPDMYPRP` on Escherichia coli TOP10?
### Response -0.0823

### Prompt Try the sequence `RRIRARPPRLPRPRPRPNVMPRP`
### Response 0.153

### Prompt How about `RRIRPRPPRLPRPRPRPNMHPRP` ?
### Response -0.329

### Prompt Follow-up entry: `RRIRGRPPRLPRPRPRPPTDPRP`
### Response 1.24

### Prompt // repeat for `RRIRERPPRLPRPRPRPDEHPRP` and report
### Response -0.274

### Prompt Next sequence up: `RRIRPRPPRLPRPRPRPESPPRP`
### Response 0.161

### Prompt # iterate: `RRIRIRPPRLPRPRPRPQTSPRP`
### Response -0.404

### Prompt Another sequence to check: `RRIRLRPPRLPRPRPRPSMGPRP`
### Response 0.0483

### Prompt Now try `RRIRSRPPRLPRPRPRPLEPPRP` .
### Response -0.132

### Prompt Proceed to `RRIRGRPPRLPRPRPRPTGEPRP`
### Response 0.0778

### Prompt How about this sequence: `RRIRYRPPRLPRPRPRPKIRPRP`
### Response 0.0107

### Prompt Field entry: `RRIRFRPPRLPRPRPRPIMTPRP`
### Response -0.368
